Form field: Percent Effect (one value per entry).
# Test system: Wolbachia pipientis
# experiment_description: Anti-Wolbachia Cell-Based Screen
# Type: functional
# Set-up: scale not given: in the data most compounds retested in dose-response had high values
# assay_context: 5 µM
Hit rate of the full screen: of about 48,000 compounds, about 13,000 (27%) showed an effect of 50% or more. Some of the results follow.
State the answer as a number, implicitly in %.

Record excerpt, results attached:
COCc1cccc(CNc2cnn(C(C)(C)C)c(=O)c2Cl)c1; -38.78
OC(CNCCn1cccn1)c1ccc(F)c(F)c1 (configuration not stated); -2.779
CC(C)(C)n1ncc(NCC(O)c2ccc(F)c(F)c2)c(Cl)c1=O (configuration not stated); 100.9
CC(C)(C)N1CC(C(=O)NCc2noc(Cc3ccccc3)n2)CC1=O (configuration not stated); -0.1463
Cc1noc(C)c1CC(=O)OCc1nc(N)c2ccccc2n1; -18.91

Task item: Give the measured Percent Effect for CC(C)(C)n1ncc(NCC(O)c2ccccc2C(F)(F)F)c(Cl)c1=O (configuration not stated)
Reply: 100.7

Task item: Give the measured Percent Effect for Cc1nc(COC(=O)c2cccnc2C)no1
Reply: 111.5

Task item: Give the measured Percent Effect for CC(C)(C)n1ncc(NCc2ccccc2)c(Cl)c1=O
Reply: -16.67

Task item: Give the measured Percent Effect for CSc1ccc(CNC(=O)C2CC(=O)N(C(C)(C)C)C2)cc1 (configuration not stated)
Reply: 13.09

Task item: Give the measured Percent Effect for CC(C)(C)n1ncc(NCCc2ccccc2C(F)(F)F)c(Cl)c1=O
Reply: 139.1

Task item: Give the measured Percent Effect for O=C(NCC(O)c1ccccc1C(F)(F)F)c1cccnc1 (configuration not stated)
Reply: -5.174

Task item: Give the measured Percent Effect for COCc1ccc(CNc2cnn(C(C)(C)C)c(=O)c2Cl)cc1
Reply: 2.959
